assay: Inhibition of HIV1 reverse transcriptase M41L/D67N/K70R/T215Y/K219Q mutant-mediated viral DNA synthesis in human HOS cells assessed as luciferase activity treated 3 hrs before infection measured after 48 hrs by luminescence assay
Assay type: cell-based
measurement_conditions: Human immunodeficiency virus 1, HOS
assay_endpoint: IC50 (nM)
Use nM as the unit, but write only the number.

Exercise: Give the measured IC50 of Cc1cn([C@H]2C[C@H](N=[N+]=[N-])[C@@H](CO)O2)c(=O)[nH]c1=O .
Solution: 20.1

Exercise: Give the measured IC50 of Cc1cn([C@@H]2C[C@H](CO)[C@@H](O)C2)c(=O)[nH]c1=O .
Solution: 1300
